- System: morningglory
- procedure-summary: Test B pre/postemergence morningglory
- Type: in vivo, Ipomoea hederacea
- condition: Postemergence, Rate 62 g/ha; scale 0 to 10, 0 is no effect, 10 is complete control
test-readout: Plant response rating, Morningglory
Answers are plain numbers.

Known Plant response rating, Morningglory results, listed for orientation:
CC[C@H](C)n1c(=O)on(C(=O)N(c2ccc(Cl)cc2)C(C)C)c1=O    0
COCCn1c(=O)on(C(=O)N(c2ccc(F)cc2)C(C)C)c1=O    3
CCC(C)n1c(=O)on(C(=O)N(c2ccccc2)C(C)C)c1=O (centres unmarked)    8
CC(C)N(C(=O)n1oc(=O)n(CSC#N)c1=O)c1ccc(F)cc1    0
CC(C)N(C(=O)n1oc(=O)n(CCC2=NOCCC2)c1=O)c1ccc(F)cc1    1
CC(C)N(C(=O)n1oc(=O)n(CCN(C)C(=O)c2ccccc2)c1=O)c1ccc(F)cc1F    0
CC(C)N(C(=O)n1oc(=O)n(CCCCl)c1=O)c1ccc(Cl)cc1    2

## Input // fetch Plant response rating, Morningglory for CC(C)N(C(=O)n1oc(=O)n(C[C@H](C)Cl)c1=O)c1ccc(Cl)cc1 ; system: morningglory
## Output 0

====

- Test system: crabgrass
- procedure-summary: Test B pre/postemergence crabgrass
- Format: in vivo, Digitaria sanguinalis
- condition: Postemergence, Rate 250 g/ha; scale of 0 to 10, 0 is no effect, 10 is complete control
Field: Crabgrass plant response rating. Provide a value for each of the compounds that follow.
Give bare numbers.

Please supply Crabgrass plant response rating for each of the following items, keeping them in order.
1. CC(C)N(C(=O)n1oc(=O)n(CCC2=NOCCC2)c1=O)c1ccc(F)cc1 [Compound 656]
2. COCCn1c(=O)on(C(=O)N(c2ccc(F)cc2F)C(C)C)c1=O [Compound 628]
3. CC(C)N(C(=O)n1oc(=O)n(CCCC(F)(F)F)c1=O)c1ccccc1 [Compound 585]
4. CC(C)N(C(=O)n1oc(=O)n(C(CF)CF)c1=O)c1ccc(F)cc1F [Compound 595]

## Output
1. 8
2. 9
3. 9
4. 9

Please supply Crabgrass plant response rating for each of the following items, keeping them in order.
1. CC(C)N(C(=O)n1oc(=O)n(CSC#N)c1=O)c1ccc(F)cc1 [Compound 618]
2. CC(C)N(C(=O)n1oc(=O)n(C(C)C)c1=O)c1ccncc1 [Compound 663]
3. C#CC(C)n1c(=O)on(C(=O)N(c2ccc(F)cc2F)C(C)C)c1=O (racemic) [Compound 657]

## Output
[0, 0, 9]

====

Field: Plant response rating, B. signalgrass. Provide a value for each of the molecules that follow.
- Tested on: surinam grass
- procedure-summary: Test B pre/postemergence surinam grass
- Assay type: in vivo, Brachiaria decumbens
- condition: Preemergence, Rate 62 g/ha; scale of 0 to 10 where 0 is no effect and 10 is complete control
- Protocol: […] At the same time, these crop and weed species were also treated with postemergence applications of test chemicals formulated in the same manner. […] Treated plants and controls were maintained in a greenhouse for twelve to sixteen days, after which all species were compared to controls and visually evaluated. […]
Answers are plain numbers.

Known Plant response rating, B. signalgrass results, listed for orientation:
CC(C)N(C(=O)n1oc(=O)n(CCCl)c1=O)c1ccccc1    3
CC(C)N(C(=O)n1oc(=O)n(CC2CCC2)c1=O)c1ccc(F)cc1F    0
CC(C)N(C(=O)n1oc(=O)n(CO)c1=O)c1ccc(F)cc1    0
COC(=O)CCCn1c(=O)on(C(=O)N(c2ccc(F)cc2F)C(C)C)c1=O    0
CC(C)N(C(=O)n1oc(=O)n(CCCC(F)(F)F)c1=O)c1ccc(F)cc1F    8

Please supply Plant response rating, B. signalgrass for each of the following items, keeping them in order.
1. CC(C)N(C(=O)n1oc(=O)n(C(C)C(=O)c2ccccc2)c1=O)c1ccc(F)cc1F (stereo not shown)
2. CC(=O)NCn1c(=O)on(C(=O)N(c2ccc(F)cc2)C(C)C)c1=O
3. CC(C)N(C(=O)n1oc(=O)n(COCc2ccccc2)c1=O)c1ccc(F)cc1F

## Output
[0, 0, 0]

Please supply Plant response rating, B. signalgrass for each of the following items, keeping them in order.
1. CC(C)N(C(=O)n1oc(=O)n(CCCCF)c1=O)c1ccc(F)cc1F
2. CC(C)N(C(=O)n1oc(=O)n(C(C)Cl)c1=O)c1ccccc1 (stereo not shown)

## Output
10
0

====

- Tested on: velvetleaf
- procedure-summary: Test B pre/postemergence velvetleaf
- Type: in vivo, Abutilon theophrasti
- condition: Preemergence, Rate 500 g/ha; scale 0 to 10, 0 is no effect, 10 is complete control
Field: Velvetleaf plant response rating. Provide a value for each of the compounds that follow.
Answers are plain numbers.

CC(C)N(C(=O)n1oc(=O)n(CC(=O)C2CC2)c1=O)c1ccc(F)cc1F    4
CC(C)N(C(=O)n1oc(=O)n(CCNC(=O)CCl)c1=O)c1ccccc1    4
CC(C)N(C(=O)n1oc(=O)n(CC2=NOCC2)c1=O)c1ccc(F)cc1    4

Please supply Velvetleaf plant response rating for each of the following items, keeping them in order.
1. CC(C)N(C(=O)n1oc(=O)n(C(C)Cl)c1=O)c1ccccc1 (centres unmarked)
2. CC(C)N(C(=O)n1oc(=O)n(CC(=O)C2CC2)c1=O)c1ccccc1

## Output
[6, 7]

====

Field: Wheat plant response rating. Provide a value for each of the molecules that follow.
- Tested on: wheat
- procedure-summary: Test B pre/postemergence wheat
- Type: in vivo, Triticum aestivum
- condition: Preemergence, Rate 125 g/ha; scale of 0 to 10 where 0 is no effect and 10 is complete control
- Description: […] At the same time, these crop and weed species were also treated with postemergence applications of test chemicals formulated in the same manner. […] Treated plants and controls were maintained in a greenhouse for twelve to sixteen days, after which all species were compared to controls and visually evaluated. […]
Answers are plain numbers.

Known Wheat plant response rating results, listed for orientation:
C=C(C)Cn1c(=O)on(C(=O)N(c2ccccc2)C(C)C)c1=O    0
CCC(C)n1c(=O)on(C(=O)N(c2ccccc2)C(C)C)c1=O (stereo not drawn) [Compound 610]    2
CC(C)N(C(=O)n1oc(=O)n(CC2CCCCO2)c1=O)c1ccccc1 (stereo not drawn)    0

Please supply Wheat plant response rating for each of the following items, keeping them in order.
1. CC(C)N(C(=O)n1oc(=O)n(CC2CCCCO2)c1=O)c1ccc(Cl)cc1 (stereo not drawn)
2. CC(C)N(C(=O)n1oc(=O)n(CC(=O)N(C)C)c1=O)c1ccccc1
3. COCCn1c(=O)on(C(=O)N(c2ccc(F)cc2)C(C)C)c1=O
4. C#CC(C)n1c(=O)on(C(=O)N(c2ccc(F)cc2F)C(C)C)c1=O (racemic)

## Output
[0, 2, 0, 0]

Please supply Wheat plant response rating for each of the following items, keeping them in order.
1. CC(C)N(C(=O)n1oc(=O)n(C(C)C)c1=O)c1ccncc1
2. CCC(C)n1c(=O)on(C(=O)N(c2ccccc2)C(C)C)c1=O (stereo not drawn) [Compound 611]

## Output
0
3

====

- Test system: morningglory
- procedure-summary: Test B pre/postemergence morningglory
- Type: in vivo, Ipomoea hederacea
- condition: Postemergence, Rate 62 g/ha; scale of 0 to 10, 0 is no effect, 10 is complete control
Field: Morningglory plant response rating. Provide a value for each of the compounds that follow.
Give bare numbers.

Known Morningglory plant response rating results, listed for orientation:
CC(C)N(C(=O)n1oc(=O)n(C(CF)CF)c1=O)c1ccc(F)cc1F    1
CC(C)N(C(=O)n1oc(=O)n(CC[N+](=O)[O-])c1=O)c1ccc(F)cc1F    0
CC(C)N(C(=O)n1oc(=O)n(C(C)C(=O)c2ccccc2)c1=O)c1ccc(F)cc1F (stereo not drawn)    4
CC(C)N(C(=O)n1oc(=O)n(CCCC(F)(F)F)c1=O)c1ccccc1    4
COC(=O)CCCn1c(=O)on(C(=O)N(c2ccc(F)cc2F)C(C)C)c1=O    3

# next compound below
## Input Specify Morningglory plant response rating for CC(C)N(C(=O)n1oc(=O)n(CCC2OCCCO2)c1=O)c1ccccc1 and stop.
## Output 1

====

- Test system: soybean
- procedure-summary: Test B pre/postemergence soybean
- Type: in vivo, Glycine max
- condition: Postemergence, Rate 125 g/ha; scale of 0 to 10 where 0 is no effect and 10 is complete control
test-readout: Plant response rating, Soybean
Numbers only.

Known Plant response rating, Soybean results, listed for orientation:
CCOP(=O)(Cn1c(=O)on(C(=O)N(c2ccc(Cl)cc2)C(C)C)c1=O)OCC [Compound 599]    2
CCC(C)n1c(=O)on(C(=O)N(c2ccccc2)C(C)C)c1=O (centres unmarked) [Compound 611]    7
C=C(C)Cn1c(=O)on(C(=O)N(c2ccccc2)C(C)C)c1=O [Compound 607]    4
CCC=CCn1c(=O)on(C(=O)N(c2ccccc2)C(C)C)c1=O [Compound 582]    3

# next compound below
## Input Specify Plant response rating, Soybean for CC(C)N(C(=O)n1oc(=O)n(CNC(=O)c2ccccc2)c1=O)c1ccccc1 [Compound 620] and stop.
## Output 1

Where these numbers come from: patent US6737383B1
